# target: Ubiquitin carboxyl-terminal hydrolase 17-like protein 5 (Homo sapiens)
# experiment notes: ubiquitin-specific protease 17 DUB inhibitors, concentration-effect assay, cell-free, verification of initial screening actives (AID 1645864)
# details: purified USP17, ubiquitin-rhodamine cleavage fluorescence, 3 h
Active and inactive are the calls of the source.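 The calls were made as follows: active = maximal inhibition of USP17 at or above 30% in the confirmation dose-response, a value not among the printed readouts; inactive = the rest.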
Just give me one of these, please: active, inactive

Asked: Could you please tell me the result logged for O=C(COC(=O)c1ccc(NS(=O)(=O)c2ccc3c(c2)OCCO3)cc1)NCc1ccc(Cl)cc1 in this assay?
Given back: inactive

Asked: Could you please tell me the result logged for CC(C)N(C(=O)Cn1c(=O)[nH]c2ccccc21)c1ccccc1 in this assay?
Given back: inactive

Asked: Could you please tell me the result logged for CCOc1ccc2cc3c(nc2c1)OC(=O)N(Cc1ccc(C)o1)C3 in this assay?
Given back: active

Asked: Could you please tell me the result logged for CC(C)N1CC[C@@H]2[C@H](C1)CN2C(=O)Nc1cccc(F)c1 in this assay?
Given back: inactive

Asked: Could you please tell me the result logged for Cc1cc(C)c(NC(=O)CSc2nc3nccnc3c(=O)n2Cc2ccccc2Cl)c(C)c1 in this assay?
Given back: active

Asked: Could you please tell me the result logged for Cc1cccc(-c2noc(CCn3c(=O)[nH]c4ccccc4c3=O)n2)c1 in this assay?
Given back: active

Asked: Could you please tell me the result logged for O=S(=O)(c1ccc(F)cc1)N1CCCC1c1ccnc(Nc2cnccn2)n1 (configuration not stated) in this assay?
Given back: inactive

Asked: Could you please tell me the result logged for COc1ccc(CCNC(=O)c2cc(C3CC3)nc3c2cnn3C(C)C)cc1 in this assay?
Given back: inactive

Asked: Could you please tell me the result logged for COc1c2nc3ccccc3oc-2cc(=O)c1OC in this assay?
Given back: active

Asked: Could you please tell me the result logged for O=C(Cn1c(=O)n(CCC(=O)N2CC=C(c3ccccc3)CC2)c(=O)c2ccccc21)NCc1ccco1 in this assay?
Given back: active

Asked: Could you please tell me the result logged for Cc1cc(C)c2cc(CN(CCc3ccccc3)C(=O)Nc3ccccc3)c(=O)[nH]c2c1 in this assay?
Given back: active

Asked: Could you please tell me the result logged for COc1ccc(C(=O)CCN2CCOCC2)cc1[N+](=O)[O-] in this assay?
Given back: inactive

Asked: Could you please tell me the result logged for Cc1cccc(NC(=O)CSc2nnc(-c3n[nH]c4c3CCC4)n2N)c1C in this assay?
Given back: active

Asked: Could you please tell me the result logged for O=C(c1ccco1)N1CCN=C1SCc1ccccc1F in this assay?
Given back: inactive

Asked: Could you please tell me the result logged for Cc1ccccc1C(=O)OCCN1C(=O)c2cccc3c(N4CCCCC4)ccc(c23)C1=O in this assay?
Given back: inactive

Asked: Could you please tell me the result logged for O=C1NC(=O)/C(=C/c2ccc(OC(=O)c3ccc(Cl)cc3Cl)cc2)N1 in this assay?
Given back: active

Asked: Could you please tell me the result logged for CC(=O)Nc1ccc(S(=O)(=O)NCc2ccc(C(=O)NCc3ccc(C)cc3)cc2)cc1 in this assay?
Given back: active

Asked: Could you please tell me the result logged for Cc1ccc(NC(=O)Cc2nnc3cc(-c4nc(C)no4)ccn23)cc1 in this assay?
Given back: active

Asked: Could you please tell me the result logged for CC(=O)Nc1ccc(-n2cnc(C(=O)NCc3ccc(C)cc3)c2)nc1 in this assay?
Given back: active

Asked: Could you please tell me the result logged for CCCc1nc2c(sc3nc4c(cc32)COC(C)(C)C4)c(=O)n1CC(=O)Nc1ccccc1C in this assay?
Given back: active

Asked: Could you please tell me the result logged for CCC(C(=O)NCc1ccncc1)N(c1cccc(Cl)c1)S(C)(=O)=O (configuration not stated) in this assay?
Given back: inactive

Asked: Could you please tell me the result logged for O=C1CC(C(=O)Nc2ccccc2Cl)n2nc(-c3ccccc3)cc2N1 (configuration not stated) in this assay?
Given back: active

Asked: Could you please tell me the result logged for O=C(c1cn(-c2cccc(F)c2)nn1)N1CCc2ccccc2C1 in this assay?
Given back: active

Asked: Could you please tell me the result logged for Cc1nnc(Sc2cc(C(=O)NCCN3CCCC3)c3ccccc3n2)s1 in this assay?
Given back: active

Asked: Could you please tell me the result logged for CC1=C(c2ccc(Cl)cc2)S(=O)(=O)NC1=NCC(=O)Nc1ccc(F)cc1 in this assay?
Given back: active

Asked: Could you please tell me the result logged for COc1ccc(CCNC(=O)CSc2cn(CCNC(=O)c3ccc(F)cc3)c3ccccc23)cc1OC in this assay?
Given back: active

Asked: Could you please tell me the result logged for CCn1cc2c(n1)c(=O)n(Cc1ccccc1)c(=O)n2CC(=O)Nc1ccc(OC)cc1 in this assay?
Given back: active

Asked: Could you please tell me the result logged for O=C(CCSc1ccc(Cl)cc1)c1cccs1 in this assay?
Given back: active

Asked: Could you please tell me the result logged for CN(C)Cc1ccc(C(=O)Nc2ccc(-c3nccs3)cc2)cc1 in this assay?
Given back: inactive

Asked: Could you please tell me the result logged for Cc1ccc(-c2c(C(=O)Nc3ccc(S(N)(=O)=O)cc3)oc(=O)c3ccccc23)cc1 in this assay?
Given back: active

Asked: Could you please tell me the result logged for O=c1c(NCCCN2CCCC2)nc2ccncc2n1Cc1ccccc1 in this assay?
Given back: active

Asked: Could you please tell me the result logged for Cc1c(C(=O)NCc2cccc(Br)c2)oc2c1-c1[nH]ncc1CC2 in this assay?
Given back: active

Asked: Could you please tell me the result logged for CC(=O)NCc1nc(-c2ccc3c(c2)nc(C)c(=O)n3C2CCCC2)no1 in this assay?
Given back: inactive

Asked: Could you please tell me the result logged for O=c1ccc(-c2noc(Cc3c(F)cccc3Cl)n2)c[nH]1 in this assay?
Given back: inactive

Asked: Could you please tell me the result logged for COc1ccc2c(c1)c(N1CCCC1=O)c(C(=O)NCc1cccc(OC)c1OC)n2C in this assay?
Given back: inactive

Asked: Could you please tell me the result logged for O=C(CNC(=O)c1cc2ccccc2o1)Nc1ccc2c(c1)OCCO2 in this assay?
Given back: active

Asked: Could you please tell me the result logged for CC1=C(c2ccc(F)cc2)S(=O)(=O)NC1=NCC(=O)Nc1ccc(F)cc1F in this assay?
Given back: active

Asked: Could you please tell me the result logged for COCCCNC(=O)c1ccc(Cn2c(=O)c3ccccc3n(CC(=O)NC3CCCCC3)c2=O)cc1 in this assay?
Given back: active

Asked: Could you please tell me the result logged for N#Cc1ccc(NC(=O)Nc2cccn(Cc3ccccc3F)c2=O)cc1 in this assay?
Given back: active

Asked: Could you please tell me the result logged for CCCCc1nc2sc3c(SCC(=O)Nc4cccc(C)c4)ncnc3c2c2c1CCC2 in this assay?
Given back: active

Asked: Could you please tell me the result logged for O=C(CN1C(=O)NC2(CCCCC2)C1=O)Nc1ccc([N+](=O)[O-])cc1 in this assay?
Given back: active

Asked: Could you please tell me the result logged for Cc1ccc(NC(=O)Cn2cc(S(=O)(=O)N3CCCC3)ccc2=O)cc1 in this assay?
Given back: active
